Form field: AntiCD3/CD28 (CD69+ CD4 T cells) repeat 2, % inhibition (one value per entry).
- testedSystem: chimeric BTLA of humanised-BTLA mice (human extracellular region, murine transmembrane and signaling … (human; mouse, UniProt Q7TSA3 184-306, limits assumed)
- Sequence (Q7TSA3 other isoform, or with tags, fused parts or gaps mutant limits assumed): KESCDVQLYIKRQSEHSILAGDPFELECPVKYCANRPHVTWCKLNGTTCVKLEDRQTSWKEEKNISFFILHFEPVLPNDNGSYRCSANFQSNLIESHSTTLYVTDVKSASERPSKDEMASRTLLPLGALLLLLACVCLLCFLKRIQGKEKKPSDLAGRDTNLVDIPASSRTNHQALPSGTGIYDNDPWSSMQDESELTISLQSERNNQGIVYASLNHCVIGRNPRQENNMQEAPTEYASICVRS
- method: cell-based or functional assay
recordedMetric: AntiCD3/CD28 (CD69+ CD4 T cells) repeat 2, % inhibition (%)

- binder: "6.2 (antibody, IgG1, V domains shown) VH: EVKLVESGGGLVKPGGSLKLSCAASGFTLSSYGMSWVRQIPEKRLEWVASIRSDGNTYYPDSVKGRFIISRDNARNILYLQMSSLRSEDTAMYYCTRGGYYGSSPYYWGQGTTLTVSS VL: DIVMSQSPSSLPVSVGEKISMTCKSSQSLLYSSNQKNYLAWYQQKPGQSPKLLIYWASTRDSGVPDRFIGSGSGTDFTLTINSVKAEDLAVYYCQQYYNYLTFGAGTKLELK"
  unitAnnotation: "%"
  numericValue: 61
- binder: "26B1 (antibody, IgG1, V domains shown) VH: EVQLQQSGPVLVKPGASVKMSCKASGYTFTDYYLNWVKQSHGKSLEWIGLIDPYNGGSSCNQKFKGKATLTVDKSSSTAYMDLNSLTSEDSAVYYCARGNAMDYWGQGTSVTVSS VL: DIVMTQSHKFMSTSVGDRVSITCKASQDVSTAVAWYQEKPGQSPKLLIYWASTRHTGVPDRFTGSGSGTDYILNISSVQAEDLALYYCQQHYIIPYMFGGGTKLEIK"
  unitAnnotation: "%"
  numericValue: 30
- binder: "8B4 (antibody, IgG1, V domains shown) VH: QVQLQQSGAELARPGASVKLPCKASGYTFTSYGISWVKQRTGQGLEWIGEIYPRSGTTYYNEKFKGKATLTADKSSSTAYMELRSLTSEDSAVYFCARRISSGSGVDYWGQGTTLTVSS VL: DIQMTQTTSSLSASLGDRVTISCSASQGISNYLNWYQQKPDGTVKLLIYYTSSLHSGVPSRFSGSGSGTDYSLTISNLEPEDIATYYCQQYSELPWTFGGGTKLEIK"
  unitAnnotation: "%"
  numericValue: 47
